Ref: patent US7109216B2

studyTarget: UniProt P21554
assayProcedure: Cannabinoid CB1 antagonistic activity, forskolin-induced cAMP accumulation in CHO cells
Format: cell-based
Design: expressed in transfected cells; host or cells: CHO cells
measurementParameters: antagonism of CB1 agonist (e.g. CP-55,940 or (R)-WIN-55,212-2) effect on forskolin-induced cAMP accumulation; CHO cells expressing human CB1; read-out: hCB1 pA2 (converted)
recordedEndpoint: Kb

Known Kb results, listed for orientation:
| compound | studyTarget | Kb |
| --- | --- | --- |
| CN(Cc1ccccc1)C(=O)c1cn(-c2ccc(Cl)cc2)c(-c2ccc(Cl)cc2Cl)n1 | UniProt P21554 | 50.1 nM |
| O=C(NN1CC2CCCC2C1)c1cn(-c2ccc(Cl)cc2)c(-c2ccc(Cl)cc2Cl)n1 (centres unmarked) | UniProt P21554 | 10 nM |
| Cc1c(C(=O)NN2CCCCC2)nc(-c2ccc(Cl)cc2Cl)n1-c1ccc(C(F)(F)F)cc1 | UniProt P21554 | 1.58 nM |
| CCCCCNC(=O)c1nc(-c2ccc(Cl)cc2Cl)n(-c2ccc(Br)cc2)c1CC | UniProt P21554 | < 1 nM |
| CSc1c(C(=O)NN2CCCCC2)nc(-c2ccc(Cl)cc2Cl)n1-c1ccc(Cl)cc1 | UniProt P21554 | 0.631 nM |
| Cc1c(C(=O)NN2CCCCC2)nc(-c2ccc(Cl)cc2)n1-c1ccc(Cl)cc1Cl | UniProt P21554 | 7.94 nM |

Look up Kb: "Cc1c(C(=O)NN2CCCCC2)nc(-c2ccc(Cl)cc2Cl)n1-c1ccc(Br)cc1"
1.58 nM

Look up Kb: "O=C(NN1CCCCC1)c1nc(-c2ccc(Cl)cc2Cl)n(-c2ccc(Cl)cc2)c1I"
2.51 nM

----------
studyTarget: human cannabinoid CB1 receptor (Homo sapiens, UniProt P21554)
Sequence (P21554 whole entry): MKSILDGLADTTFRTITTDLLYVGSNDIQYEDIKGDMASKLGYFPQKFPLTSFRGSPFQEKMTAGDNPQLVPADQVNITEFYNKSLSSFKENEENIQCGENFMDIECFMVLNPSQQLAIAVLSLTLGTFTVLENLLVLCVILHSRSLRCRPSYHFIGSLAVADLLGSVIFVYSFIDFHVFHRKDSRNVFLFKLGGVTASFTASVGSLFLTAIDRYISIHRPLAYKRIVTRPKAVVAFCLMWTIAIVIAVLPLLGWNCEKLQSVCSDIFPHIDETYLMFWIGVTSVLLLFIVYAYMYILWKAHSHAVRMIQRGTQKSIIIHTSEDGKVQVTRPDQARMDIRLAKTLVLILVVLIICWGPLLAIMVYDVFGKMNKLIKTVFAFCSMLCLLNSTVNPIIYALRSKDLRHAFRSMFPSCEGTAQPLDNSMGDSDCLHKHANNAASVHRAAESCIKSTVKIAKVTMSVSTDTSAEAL
assayProcedure: biochemical
Format: binding
Set-up: expressed in transfected cells; host or cells: Chinese hamster ovary (CHO) cells, membrane preparation
measurementParameters: hCB1 pKi, [3H]CP-55,940 radioligand; CHO cell membranes stably transfected with human CB1
pKi: −log10 of the molar value.
Decision: pKi >= 7 yields y, all other cases yield n.

Solved entries:
| structureNotation | assignedLabel |
| --- | --- |
| O=C(NN1CCCCC1)c1nc(-c2ccc(Cl)cc2Cl)n(-c2ccc(Cl)cc2)c1CO | y |
| CCCCCNC(=O)c1nc(-c2ccc(Cl)cc2Cl)n(-c2ccc(Cl)cc2)c1C | y |
| Cc1ccc(-c2nc(C(=O)NN3CCCCC3)c(C)n2-c2ccc(Cl)cc2)n1C | y |

# check: pKi of "Cc1c(C(=O)NC2CCCCC2)nc(-c2ccc(Cl)cc2F)n1-c1ccc(Cl)cc1" is greater than or equal to 7
n

# check: pKi of "Cc1c(C(=O)NN2CCCC2)nc(-c2ccc(Cl)cc2Cl)n1-c1ccc(Cl)cc1" is greater than or equal to 7
y

----------
Measured Ki by item
studyTarget: human cannabinoid CB1 receptor (Homo sapiens, UniProt P21554)
assayProcedure: biochemical
Type: binding
Design: expressed in transfected cells; host or cells: Chinese hamster ovary (CHO) cells, membrane preparation
measurementParameters: hCB1 pKi, [3H]CP-55,940 radioligand; CHO cell membranes stably transfected with human CB1
Quick note: give the figure in µM, leave out the unit.

Known Ki results, listed for orientation:
| molecule | unitSymbol | Ki |
| --- | --- | --- |
| Cc1c(C(=O)NC2CCCC2)nc(-c2ccc(Cl)cc2Cl)n1-c1ccc(Cl)cc1 [Example 107] | µM | 0.158 |
| O=C(NN1CCCCC1)c1nc(-c2ccc(Cl)cc2Cl)n(-c2ccc(Cl)cc2)c1CF [Example 114] | µM | 0.0631 |
| Cc1c(C(=O)N[C@H]2CC[C@H](O)CC2)nc(-c2ccc(Cl)cc2Cl)n1-c1ccc(Cl)cc1 [Example 86] | µM | 0.126 |
| N#Cc1c(C(=O)NN2CCCCC2)nc(-c2ccc(Cl)cc2Cl)n1-c1ccc(Cl)cc1 [Example 110] | µM | 0.0316 |
| Cc1c(C(=O)NCc2ccc(F)cc2)nc(-c2ccc(Cl)cc2Cl)n1-c1ccc(Cl)cc1 [Example 90] | µM | 0.01 |

Look up Ki: Cc1c(C(=O)NN2CCCCC2)nc(-c2ccc(Cl)cc2Cl)n1-c1ccc(Br)cc1 [Example 17]
0.0501

Look up Ki: Cc1c(C(=O)NOC2CCCCO2)nc(-c2ccc(Cl)cc2Cl)n1-c1ccc(Cl)cc1 (centres unmarked) [Example 83]
0.00398

Look up Ki: Cc1c(C(=O)NN2CC3CCCC3C2)nc(-c2ccc(Cl)cc2Cl)n1-c1ccc(Cl)cc1 (centres unmarked) [Example 81]
0.0316
